- target.of.assay: Sigma non-opioid intracellular receptor 1 (Cavia porcellus) (UniProt Q60492)
- Sequence (Q60492 whole entry, looked up): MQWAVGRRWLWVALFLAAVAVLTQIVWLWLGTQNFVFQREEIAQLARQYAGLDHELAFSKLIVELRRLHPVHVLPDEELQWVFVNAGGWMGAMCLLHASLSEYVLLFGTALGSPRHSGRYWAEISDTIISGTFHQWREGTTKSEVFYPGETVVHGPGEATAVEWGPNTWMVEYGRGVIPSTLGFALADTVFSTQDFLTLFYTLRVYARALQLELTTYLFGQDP
- test.details: The compound was evaluated for binding affinity against sigma receptor using [3H]DTG radioligand in guinea pig membranes
value.type: log10 of IC50 (log10 of the value in µM)

{"molecule": "CC(=Nc1ccccc1C)Nc1ccccc1C", "log10 of IC50": -1.82}
{"molecule": "CC(=Nc1ccc(Br)cc1C)Nc1ccc(Br)cc1C", "log10 of IC50": -1.59}
{"molecule": "CC(=NC12CC3CC(CC(C3)C1)C2)NC12CC3CC(CC(C3)C1)C2 [N,N'-Di-adamantan-1-yl-acetamidine]", "log10 of IC50": -1.80}
{"molecule": "CC(=Nc1ccccc1C)NC12CC3CC(CC(C3)C1)C2", "log10 of IC50": -2.22}
{"molecule": "CC(=Nc1ccccc1C)NC1CCCCC1", "log10 of IC50": -2.05}
{"molecule": "CC(=NC12CC3CC(CC(C3)C1)C2)NC1CCCCC1", "log10 of IC50": -1.14}
{"molecule": "CC(=Nc1ccccc1C)NC1CC2CCC1C2 (configuration not stated)", "log10 of IC50": -2.05}

Hey, just so you know, these numbers are from BindingDB's records for doi:10.1016/S0960-894X(01)81027-1.
